assay: Intrinsic clearance in mouse hepatocytes measured per million cells at 1 uM measured for 0.5 to 120 mins by LC-MS/MS analysis; type: ADME, cell-based, Hepatocyte; conditions: time 0.5-120 min, read-out: CLH
measurement-label: hepatocyte CLint at 1 µM (µL/min/1e6 cells)
Give a bare numeral; the unit µL/min/1e6 cells is implied.

Worked cases, answers included:
compound: CCc1cc(N2C(=S)N(c3ccc(C#N)c(C(F)(F)F)c3)C(=O)C2(C)C)ccc1OCCN1CCN(CC(=O)Nc2cccc(NC3CCC(=O)NC3=O)c2)[C@H](C)C1 (stereo not given in full)
measured-value: 10

compound: O=C1CC[C@H](N2Cc3cc(N4CCN(CC5CCN(c6ccc([C@@H]7c8ccc(O)cc8CC[C@@H]7c7ccccc7)cc6)CC5)CC4)ccc3C2=O)C(=O)N1
measured-value: 23

compound: CN1CCN([C@@H]2CCCN(c3cnc(C(N)=O)c(Nc4ccc(C5CCN(CC6CCN(c7ccc(C(=O)N[C@H]8CCC(=O)NC8=O)nc7)CC6)CC5)cc4)n3)C2)C1=O
measured-value: 4

compound: CNC(=O)COc1cc2cc(Nc3nc(N4CCC(O[C@H]5C[C@H](N6CCC(c7ccc8c(c7F)CN(C7CCC(=O)NC7=O)C8=O)CC6)C5)CC4)ncc3Cl)ccc2n(C(C)C)c1=O (stereo not given in full)
measured-value: 5

Alright, here's another compound for you.
Request: # get_value(readout='hepatocyte CLint at 1 µM', item= Cn1c(=O)n([C@H]2CCC(=O)NC2=O)c2cccc(C#CCOC3CCN(C[C@H]4CC[C@H](n5cc(NC(=O)c6cnn7ccc(N8C[C@H]9C[C@@H]8CO9)nc67)c(C(F)F)n5)CC4)CC3)c21 )
Result: 11
